assayed-system: T1, human TIGIT on CHO-K1 cells (human, UniProt Q495A1 23-244)
T1 construct: also called hu TIGIT; TIGIT+CHO-K1 cells
T1 sequence: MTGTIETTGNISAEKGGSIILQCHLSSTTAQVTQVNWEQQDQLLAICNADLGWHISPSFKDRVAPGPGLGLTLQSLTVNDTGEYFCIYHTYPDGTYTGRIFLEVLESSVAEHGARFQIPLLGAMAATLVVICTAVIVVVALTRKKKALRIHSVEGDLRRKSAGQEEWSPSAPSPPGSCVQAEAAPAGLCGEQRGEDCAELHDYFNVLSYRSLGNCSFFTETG
assay-notes: flow cytometry competition with biotinylated hPVR-mIg on CHO-K1 cells expressing human TIGIT
pIC50: −log10 of the molar value.
Provide the recorded pIC50 for the entries that follow.

Worked examples follow.
binder="T-09 (antibody, V domains shown, Anti-human TIGIT monoclonal antibody from mouse hybridoma; also called anti-hu TIGIT mab T-09) VH: QVTLKESGPTLVKPTQTLTLTCTFSGFSLSTFAMGVGWIRQPPGKALEWLAHIWWDDDKYYNPALKSRLTITKDTSKNQVVLTMTNMDPVDTATYYCARMDYSYFAWFAYWGQGTLVTVSS VL: QAVVTQEPSLTVSPGGTVTLTCRSSTGAVTTSNYANWVQQKPGQLFRGLIGGTNNRAPWVPARFSGSLIGDKAALTLSGVQPEDEAEYFCALWYSNHWVFGGGTKLTVL" outcome_measure=pIC50 result="9.38 to 9.44"
binder="T-08 (antibody, V domains shown, Anti-human TIGIT monoclonal antibody from mouse hybridoma; also called anti-hu TIGIT mab T-08; anti-TIGIT (T-08)) VH: QVQLVQSGSELKKPGASVKVSCKASGYTFTNYGMNWVRQAPGQGLEWMGWINTYTGEPTYADDFKGRFVFSLDTSVSTAYLQISSLKAEDTAVYYCARAPPYGYDVRFAYWGQGTLVTVSS VL: DVVMTQSPLSLPVTLGQPASISCRSSQSIVHSNGNTYLEWFQQRPGQSPRVLIYKVSDRFSGVPDRFSGSGSGTDFTLKISRVEAEDVGVYYCFQGSHVPWTFGRGTKLEIK" outcome_measure=pIC50 result="8.78 to 9.40"

Attention now shifts to the item below.
# input Query: pIC50; subject: T-04 (antibody, V domains shown, Anti-human TIGIT monoclonal antibody from mouse hybridoma; also called anti-hu TIGIT mab T-04) VH: EVQLVQSGAEVKKPGATVKISCKVSGYTFTDHTIHWVQQAPGKGLEWMGYIYPRDGSSKYNVKFKGRVTITADTSTDTAYMELSSLRSEDTAVYYCATGMLRWFAYWGQGTLVTVSS VL: DIQMTQSPSSLSASVGDRVTITCKASQDVFTAVAWYQQKPGKAPKLLIYSASYRYTGVPSRFSGSGSGTDFTFTISSLQPEDIATYYCQQHYSIPLTFGAGTKLEIK
# output 9.51 to 9.92
